# System Tested: Recombinant human Tyro3 (455-end) (Homo sapiens, UniProt Q06418)
# Construct: GST (N)
# Sequence (Q06418 455-890 limits assumed): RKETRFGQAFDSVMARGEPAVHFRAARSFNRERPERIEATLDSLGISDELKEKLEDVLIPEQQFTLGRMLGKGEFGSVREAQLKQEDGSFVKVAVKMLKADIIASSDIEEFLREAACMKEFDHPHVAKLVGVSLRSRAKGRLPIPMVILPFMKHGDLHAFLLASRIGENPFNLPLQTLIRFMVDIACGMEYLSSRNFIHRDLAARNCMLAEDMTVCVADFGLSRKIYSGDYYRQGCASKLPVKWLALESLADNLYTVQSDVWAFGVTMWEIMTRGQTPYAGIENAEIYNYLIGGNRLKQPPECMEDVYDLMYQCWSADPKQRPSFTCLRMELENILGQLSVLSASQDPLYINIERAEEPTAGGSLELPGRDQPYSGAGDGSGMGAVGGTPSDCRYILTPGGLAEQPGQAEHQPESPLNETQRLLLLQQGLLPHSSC
# Assay Text: Kinase enzymatic activity assay ([33P]-ATP phosphate transfer), Tyro3
# Applied Conditions: inhibitory activity on Tyro3; class symbols
pIC50: −log10 of the molar value.
The following compounds are listed with their measured pIC50 values.

Study these solved cases before continuing.
smiles_text=Nc1ncc(-c2ccn(C3CCNCC3)c2)cc1-c1nnc(-c2c(Cl)cccc2Cl)o1 system_tested="Recombinant human Tyro3 (455-end) (Homo sapiens, UniProt Q06418)" metric=pIC50 measurement="> 6.30"
smiles_text=CC(C)(C)OC(=O)N1CCC(n2cc(-c3cnc(N)c(-c4nnc(-c5ccccc5)o4)c3)cn2)CC1 system_tested="Recombinant human Tyro3 (455-end) (Homo sapiens, UniProt Q06418)" metric=pIC50 measurement="5.00 to 6.00"
smiles_text=Nc1ncc(-c2cnn(C3CCN(C(=O)C4CC4)CC3)c2)cc1-c1ncc(-c2cccc(Cl)c2)o1 system_tested="Recombinant human Tyro3 (455-end) (Homo sapiens, UniProt Q06418)" metric=pIC50 measurement="6.00 to 6.30"
smiles_text=Nc1ncc(-c2cnn(C3CCCCC3)c2)cc1-c1ccc(-c2ccccc2)o1 system_tested="Recombinant human Tyro3 (455-end) (Homo sapiens, UniProt Q06418)" metric=pIC50 measurement="5.00 to 6.00"
smiles_text=CC(C)(C)OC(=O)N1CCC(n2cc(-c3cnc(N)c(-c4nnc(CC5CC5)o4)c3)cn2)CC1 system_tested="Recombinant human Tyro3 (455-end) (Homo sapiens, UniProt Q06418)" metric=pIC50 measurement="5.00 to 6.00"

# return recorded pIC50 for input `Nc1ncc(-c2cnn(C3CCNCC3)c2)cc1-c1ncc(-c2ccccc2)o1`
> 6.30

# return recorded pIC50 for input `CC(C)(C)OC(=O)N1CCC(n2cc(-c3cnc(N)c(-c4nnc(-c5ccc(F)cc5)o4)c3)cn2)CC1`
5.00 to 6.00

# return recorded pIC50 for input `Nc1ncc(-c2cnn(C3CCCCC3)c2)cc1-c1cc(-c2ccccc2)on1`
5.00 to 6.00

# return recorded pIC50 for input `Nc1ncc(-c2cnn(C3CCN(C(=O)c4ccccc4)CC3)c2)cc1-c1ncc(-c2ccc(Cl)cc2)o1`
> 6.30

# return recorded pIC50 for input `CC(C)(C)c1ccc(-c2nnc(-c3cc(-c4cn[nH]c4)cnc3N)o2)cc1`
< 5.00

# return recorded pIC50 for input `Nc1ncc(-c2cnn(C3CCOCC3)c2)cc1-c1nnc(-c2ccccc2)o1`
> 6.30

====

For UniProtKB P30530, measured pIC50 is reported for the entries below.
pIC50: −log10 of the molar value.

Study these solved cases before continuing.
smiles_text=Nc1ncc(-c2cnn(C3CCOCC3)c2)cc1-c1ncc(-c2ccccc2)o1 metric=pIC50 measurement="> 6.30"
smiles_text=Nc1ncc(-c2cn[nH]c2)cc1-c1nnc(-c2cc(F)ccc2F)o1 metric=pIC50 measurement="> 6.30"
smiles_text=Nc1ncc(-c2cnn(C3CCNCC3)c2)cc1-c1nnc(-c2nccs2)o1 metric=pIC50 measurement="> 6.30"
smiles_text=CC(=O)N1CCC(n2cc(-c3cnc(N)c(-c4ncc(-c5cccc(Cl)c5)o4)c3)cn2)CC1 metric=pIC50 measurement="> 6.30"

Param request: pIC50 | system UniProtKB P30530 | item `Nc1ncc(-c2cn[nH]c2)cc1-c1nc(-c2ccccc2)no1`
6.00 to 6.30

====

# System Tested: Recombinant human Tyro3 (455-end) (Homo sapiens, UniProt Q06418)
# Construct: GST (N); made in house; host or cells: Sf9 insect cells (baculovirus)
# Assay Text: Kinase enzymatic activity assay ([33P]-ATP phosphate transfer), Tyro3
# Assay type: biochemical
# Applied Conditions: inhibitory activity on Tyro3; class symbols
The following compounds are listed with their measured IC50 values.

Study these solved cases before continuing.
smiles_text=CN1CCC(n2cc(-c3cnc(N)c(-c4nc(-c5ccccc5)no4)c3)cn2)CC1 measurement="< 500 nM"
smiles_text=CCCCCCCCCCCCN1CCC(n2cc(-c3cnc(N)c(-c4nnc(-c5c(Cl)cccc5Cl)o4)c3)cn2)CC1 measurement="500 to 1000 nM"
smiles_text=Nc1ncc(-c2cnn(C3CCNCC3)c2)cc1-c1nnc(-c2cnccn2)o1 measurement="< 500 nM"

# ---- query compound ----
# return recorded IC50 for input `Nc1ncc(-c2cnn(C3CCN(C(=O)Cc4ccccc4)CC3)c2)cc1-c1nc(-c2ccccc2)no1`
1000 to 10000 nM

====

For human Axl (473-end) (Homo sapiens), measured IC50 is reported for the entries below.

# return recorded IC50 for input `CN1CCC(n2cc(-c3cnc(N)c(-c4nc(-c5ccccc5)no4)c3)cn2)CC1`
< 500 nM

# return recorded IC50 for input `CC(C)(C)OC(=O)N1CCC(n2cc(-c3cnc(N)c(-c4ncc(-c5ccc(Cl)cc5)o4)c3)cn2)CC1`
500 to 1000 nM

# return recorded IC50 for input `Nc1ncc(-c2cnn(C3CCNCC3)c2)cc1-c1nnc(-c2c(Cl)cccc2Cl)o1`
< 500 nM

# return recorded IC50 for input `CN1CCC(n2cc(-c3cnc(N)c(-c4nc(-c5c(Cl)cccc5Cl)no4)c3)cn2)CC1`
< 500 nM

# return recorded IC50 for input `Nc1ncc(-c2cnn(C3CCNCC3)c2)cc1-c1nnc(-c2ccccc2)o1`
< 500 nM

# return recorded IC50 for input `CC(C)(C)OC(=O)N1CCC(n2cc(-c3cnc(N)c(-c4nnc(CC5CC5)o4)c3)cn2)CC1`
< 500 nM

====

The following compounds are listed with their measured pIC50 values.
# System Tested: human Mer (578-872) (Homo sapiens)
# Sequence (Q12866 578-872): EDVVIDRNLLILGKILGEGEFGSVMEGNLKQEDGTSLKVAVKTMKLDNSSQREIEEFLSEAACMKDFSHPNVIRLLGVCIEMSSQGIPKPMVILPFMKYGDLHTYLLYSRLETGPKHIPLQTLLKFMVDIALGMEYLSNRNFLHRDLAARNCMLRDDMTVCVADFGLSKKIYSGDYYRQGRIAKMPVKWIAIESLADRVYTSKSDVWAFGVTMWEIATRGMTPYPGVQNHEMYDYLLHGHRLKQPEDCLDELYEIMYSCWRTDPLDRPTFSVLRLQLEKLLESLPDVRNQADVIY
pIC50: −log10 of the molar value.

Study these solved cases before continuing.
smiles_text=Nc1ncc(-c2cnn(C3CCCCC3)c2)cc1-c1ncc(-c2cccc(Cl)c2)o1 system_tested="human Mer (578-872) (Homo sapiens)" measurement="5.00 to 6.00"
smiles_text=Nc1ncc(-c2cnn(C3CCCCC3)c2)cc1-c1nc(-c2c(Cl)cccc2Cl)no1 system_tested="human Mer (578-872) (Homo sapiens)" measurement="5.00 to 6.00"
smiles_text=CCN1CCC(n2cc(-c3cnc(N)c(-c4nc(-c5c(Cl)cccc5Cl)no4)c3)cn2)CC1 system_tested="human Mer (578-872) (Homo sapiens)" measurement="> 6.30"
smiles_text=Nc1ncc(-c2cnn(C3CCCCC3)c2)cc1-c1nnc(-c2ccccc2)o1 system_tested="human Mer (578-872) (Homo sapiens)" measurement="< 5.00"
smiles_text=Nc1ncc(-c2cn[nH]c2)cc1-c1nc(-c2ccccc2)no1 system_tested="human Mer (578-872) (Homo sapiens)" measurement="5.00 to 6.00"

# return recorded pIC50 for input `Nc1ncc(-c2cnn(C3CCCCC3)c2)cc1-c1cc(-c2ccccc2)on1`
5.00 to 6.00

# return recorded pIC50 for input `Nc1ncc(-c2cnn(C3CCNCC3)c2)cc1-c1ncc(-c2ccccc2)o1`
> 6.30

# return recorded pIC50 for input `CC(C)(C)OC(=O)N1CCC(n2cc(-c3cnc(N)c(-c4nnc(Cc5ccccc5)o4)c3)cn2)CC1`
5.00 to 6.00

# return recorded pIC50 for input `Nc1ncc(-c2cnn(C3CCNCC3)c2)cc1-c1nc(-c2ccccc2)no1`
> 6.30

# return recorded pIC50 for input `CC(C)(C)OC(=O)N1CCC(n2cc(-c3cnc(N)c(-c4ncc(-c5ccc(Cl)cc5)o4)c3)cn2)CC1`
5.00 to 6.00

# return recorded pIC50 for input `CC(C)(C)OC(=O)N1CCC(n2cc(-c3cnc(N)c(-c4nnc(CC5CC5)o4)c3)cn2)CC1`
6.00 to 6.30

# return recorded pIC50 for input `Nc1ncc(-c2cnn(C3CCN(C(=O)c4ccccc4)CC3)c2)cc1-c1ncc(-c2cccc(Cl)c2)o1`
5.00 to 6.00

# return recorded pIC50 for input `Nc1ncc(-c2cnn(C3CCCCC3)c2)cc1-c1noc(-c2ccccc2)n1`
< 5.00

# return recorded pIC50 for input `CN1CCC(n2cc(-c3cnc(N)c(-c4cc(-c5ccccc5)on4)c3)cn2)CC1`
> 6.30

====

# System Tested: Recombinant human Tyro3 (455-end) (Homo sapiens)
# Construct: GST (N)
# Assay Text: Kinase enzymatic activity assay ([33P]-ATP phosphate transfer), Tyro3
# Applied Conditions: inhibitory activity on Tyro3; class symbols
Metric: IC50

Study these solved cases before continuing.
smiles_text=CC(=O)N1CCC(n2cc(-c3cnc(N)c(-c4ncc(-c5ccc(Cl)cc5)o4)c3)cn2)CC1 measurement="> 10000 nM"
smiles_text=Nc1ncc(-c2cnn(C3CCN(C(=O)Cc4ccccc4)CC3)c2)cc1-c1ncc(-c2ccc(Cl)cc2)o1 measurement="< 500 nM"
smiles_text=Nc1ncc(-c2cnn(C3CCNCC3)c2)cc1-c1noc(-c2cc(Cl)ccc2Cl)n1 measurement="< 500 nM"

Param request: IC50 | system Recombinant human Tyro3 (455-end) (Homo sapiens) | item `Nc1ncc(-c2cnn(C3CCNCC3)c2)cc1-c1nc(-c2ccccc2)no1`
< 500 nM
